# Tested on: HS 578T breast
# Protocol description: NCI tumour cell line growth inhibition, 48 h
Listed below: TGI values for each entry.
Readout: TGI (µM)

Compound: CCOC(=O)CSc1nc(-c2ccc(Cl)cc2)c(C#N)c(=O)[nH]1
Unit abbrev: µM
Inequality symbol: >
Result number: 100

Compound: O=C(/C=C/c1ccccn1)c1ccccc1
Unit abbrev: µM
Inequality symbol: =
Result number: 39.4

Compound: CCOC1OC(C)(C=C(C#N)C#N)CCC1C (stereo unspecified)
Unit abbrev: µM
Inequality symbol: >
Result number: 89.1

Compound: Nc1c(-c2ccccc2)c2ccc([N+](=O)[O-])cc2c(=O)n1-c1cccc(C(=O)O)c1
Unit abbrev: µM
Inequality symbol: >
Result number: 100

Compound: C[N+](C)([O-])C12CC3CC(CC(C3)C1)C2
Unit abbrev: µM
Inequality symbol: >
Result number: 100

Compound: CN1CCC(C(=O)Nc2n[nH]c3nnc(-c4ccccc4)cc23)CC1
Unit abbrev: µM
Inequality symbol: >
Result number: 25

Compound: Cc1nc2sc(C(=O)Nc3cccc(Cl)c3)c(N)c2cc1C(O)c1ccccc1 (stereo unspecified)
Unit abbrev: µM
Inequality symbol: =
Result number: 4.89

Compound: CCCCCCCCCCCCCCCCOC[C@H](COC(c1ccccc1)(c1ccccc1)c1ccccc1)O[P+](=S)OC (stereo partly specified)
Unit abbrev: µM
Inequality symbol: >
Result number: 100

Compound: Cc1cc(S(=O)(=O)NC2=NCc3c(F)cccc3N2)c(S)cc1Cl
Unit abbrev: µM
Inequality symbol: >
Result number: 100

Compound: N=C(N)c1ccc(N=Nc2c(O)c(C(=O)Nc3ccccc3)cc3ccccc23)cc1
Unit abbrev: µM
Inequality symbol: >
Result number: 85.5

Compound: Cc1cc(=O)[nH]c2c1C(=O)c1c(C)cc(=O)n(C)c1C2=O
Unit abbrev: µM
Inequality symbol: =
Result number: 0.154

Compound: Cc1ncc([N+](=O)[O-])n1CCOc1ccc(C(=O)/C=C/c2ccc(C(F)(F)F)cc2)cc1
Unit abbrev: µM
Inequality symbol: =
Result number: 33.3

Compound: COc1cc2c(cc1OC)C(Sc1ccc(Cl)cc1)c1c(nc(N)c(C#N)c1N)O2 (stereo unspecified)
Unit abbrev: µM
Inequality symbol: =
Result number: 6.43

Compound: Cc1c(-c2ccccc2)oc(=O)c2ccccc12
Unit abbrev: µM
Inequality symbol: =
Result number: 43.1

Compound: CC(C)NC(=O)OCCN=C1c2ccccc2C(Br)C(Br)c2ccccc21 (stereo unspecified)
Unit abbrev: µM
Inequality symbol: =
Result number: 31.4

Compound: Nc1c([N+](=O)[O-])ncn1C1OC(CO)C(O)C1O (stereo unspecified)
Unit abbrev: µM
Inequality symbol: >
Result number: 100

---

Listed below: TGI values for each entry.
# Test system: SR leukemia
# Protocol description: NCI tumour cell line growth inhibition, 48 h
Readout: TGI

Compound: O=C(/C=N/O)Nc1cccc(Cl)c1I
Result: > 100 µM
--
Compound: COc1ccc2cc1Oc1ccc(cc1)CC1c3c(cc(OC)c4c3Oc3cc5c(cc3O4)CCNC5C2)CCN1C (stereo not drawn)
Result: 2.51 µM
--
Compound: COc1cc(OC)c(OC)cc1/C=C\c1ccnc2ccccc12
Result: > 100 µM
--
Compound: O=C(CN1CCCC1)Nc1ccc2c(c1)C1Oc3ccccc3CC1CO2 (stereo not drawn)
Result: 89.6 µM
--
Compound: CC1(c2ccc(Cl)cc2)c2ccccc2C(=O)N1CCCN1C(=O)c2ccccc2C1=O (stereo not drawn)
Result: > 100 µM
--
Compound: COc1cc(CNc2nc3c(NC(C)=O)cc(C(F)(F)F)cc3nc2-c2ccccc2)cc(OC)c1OC
Result: > 100 µM
--
Compound: Nc1c(-c2ccccc2)c2ccc([N+](=O)[O-])cc2c(=O)n1-c1cccc(C(=O)O)c1
Result: > 100 µM
--
Compound: Cc1ncc([N+](=O)[O-])n1CCOc1ccc(C(=O)/C=C/c2ccc(C(F)(F)F)cc2)cc1
Result: 5.5 µM

---

# System: MCF7 breast
# Protocol description: NCI tumour cell line growth inhibition, 48 h
Listed below: GI50 values for each entry.
Readout: GI50

Compound: COc1ccc2c(c1)CCC1C2CCC2(C)C(NC(=O)CCCCC3CCSS3)CCC12 (centres undefined)
Result: 39.7 µM
//
Compound: COc1cc(C(=O)Nc2ccc(-c3nc4ccccc4[nH]3)cc2)cc(OC)c1OC
Result: 11.2 µM
//
Compound: Nc1c([N+](=O)[O-])ncn1C1OC(CO)C(O)C1O (centres undefined)
Result: > 100 µM
//
Compound: c1ccc(-c2nc3ccccc3[nH]2)c(OCCCCCOc2ccccc2-c2nc3ccccc3[nH]2)c1
Result: 2.3 µM
//
Compound: COc1ccc(C2=NOC3=c4ccccc4=CSC3=C2c2ccccc2)cc1
Result: 24.2 µM
//
Compound: COc1ccc([C@H]2c3[nH]c4ccccc4c3C[C@H]3C(=O)N(CCCCCCC(=O)NO)CC(=O)N23)cc1
Result: 1.78 µM
//
Compound: C#CCN(CCCOc1ccc(Cl)cc1Cl)CCCSC(=O)CCCCCN1/C(=C\C=C2/CCCC(/C=C/C3=[N+](CCCCCC(=O)[O-])c4ccccc4C3(C)C)=C2Cl)C(C)(C)c2ccccc21
Result: 1.24 µM
//
Compound: C=C(c1ccc(C(=O)NCCCn2ccnc2)cc1)c1cc2c(cc1C)C(C)(C)CCC2(C)C
Result: 1.25 µM
//
Compound: COC(=O)c1sc(=S)c2sc(C(=O)OC)c(C(=O)OC)c2c1C(=O)OC
Result: 40 µM

---

# System: DU-145 prostate
# Protocol description: NCI tumour cell line growth inhibition, 48 h

Compound: COc1cc(-c2cc(OC)c(OC)c3ccc(Br)cc23)c2cc(Br)ccc2c1OC
Target under test: DU-145 prostate
TGI: 93.4 µM

Compound: CC(C)(C)OC(=O)CC(S(=O)(=O)c1ccccc1)S(=O)(=O)c1ccccc1
Target under test: DU-145 prostate
TGI: 28.8 µM

Compound: CCOC(=O)NCC(=O)NCC(=O)NCC(N)=O
Target under test: DU-145 prostate
TGI: > 100 µM

Compound: Cc1c(C)c2c(c(N)c1C#N)C(=O)N(NC(=S)Nc1ccccc1)C2=O
Target under test: DU-145 prostate
TGI: > 100 µM

Compound: Fc1cccc(C2ON=C(c3ccccc3)N2C23CC4CC(CC(C4)C2)C3)c1 (stereo not given)
Target under test: DU-145 prostate
TGI: > 10 µM

Compound: CN1CCN(Cc2ccc(C(=S)Nc3ccccc3)s2)CC1
Target under test: DU-145 prostate
TGI: > 100 µM

Compound: COc1ccc(Nc2nc(N)c(C(=O)c3ccco3)s2)cc1
Target under test: DU-145 prostate
TGI: > 100 µM

Compound: COc1ccc2cc1Oc1ccc(cc1)CC1c3c(cc(OC)c4c3Oc3cc5c(cc3O4)CCNC5C2)CCN1C (stereo not given)
Target under test: DU-145 prostate
TGI: 2.87 µM

Compound: C=C(c1ccc(C(=O)NCCCn2ccnc2)cc1)c1cc2c(cc1C)C(C)(C)CCC2(C)C
Target under test: DU-145 prostate
TGI: > 62.5 µM

Compound: O=c1[nH]c(NCCCCCO)nc2nc[nH]c12
Target under test: DU-145 prostate
TGI: > 100 µM

---

# System: OVCAR-8 ovarian
# Protocol description: NCI tumour cell line growth inhibition, 48 h
Listed below: GI50 values for each entry.

Molecule: C#CCN(CCCOc1ccc(Cl)cc1Cl)CCCSC(=O)CCCCCN1/C(=C\C=C2/CCCC(/C=C/C3=[N+](CCCCCC(=O)[O-])c4ccccc4C3(C)C)=C2Cl)C(C)(C)c2ccccc21
GI50: 1.99 µM
//
Molecule: O=C(Cc1csc2nc(-c3ccc(Br)cc3)cn12)N/N=C/c1ccccc1O
GI50: 2.28 µM
//
Molecule: O=C(Nc1ccc(-n2cc(-c3ccncc3)c(-c3ccc(Cl)c(O)c3)n2)cc1)c1ccc(Cl)c(Cl)c1
GI50: 4.68 µM
//
Molecule: COc1ccc(C2CC(c3cccc(Nc4ccncc4)c3)=NN2c2ccccc2)cc1 (stereo not drawn)
GI50: 2.19 µM
//
Molecule: CN1CCC(C(=O)Nc2n[nH]c3nnc(-c4ccccc4)cc23)CC1
GI50: > 25 µM
//
Molecule: Cc1nc2sc(C(=O)Nc3cccc(Cl)c3)c(N)c2cc1C(O)c1ccccc1 (stereo not drawn)
GI50: 2.51 µM
//
Molecule: COc1cc(-c2ccc[nH]2)[nH]c1/C=C1\N=C(C)C(C(=O)NC(C)C)=C1C
GI50: 3.43 µM
//
Molecule: CCCCCCC1CCCCN1C(c1ccccc1)C(O)c1ccccc1 (stereo not drawn)
GI50: 14.8 µM
//
Molecule: Cn1cc(C2=C(c3cccc([N+](=O)[O-])c3)C(=O)NC2=O)c2ccccc21
GI50: 6.81 µM
//
Molecule: NCC[PH+](c1ccccc1)c1ccccc1.NCC[PH+](c1ccccc1)c1ccccc1.[Cl-].[Pt+4]
GI50: > 100 µM
//
Molecule: COc1cc(C(=O)/C=C/c2c(C)n([O-])c3ccc(Cl)cc3[n+]2=O)cc(OC)c1OC
GI50: 3.18 µM
//
Molecule: Clc1cc(Cl)cc(Nc2ccc3c(OCCCN4CCOCC4)cccc3n2)c1
GI50: 3.54 µM
//
Molecule: COc1ccc(-c2nc3sccn3c2/C=C/C(=O)c2cc(OC)c(OC)c(OC)c2)cc1
GI50: 3.03 µM

Cited source: PubChem BioAssay (NCI)
